# System Under Test: DLL3 endogenously expressed on NCI-H82 cells (UniProt Q9NYJ7)
# Sequence (Q9NYJ7 27-618): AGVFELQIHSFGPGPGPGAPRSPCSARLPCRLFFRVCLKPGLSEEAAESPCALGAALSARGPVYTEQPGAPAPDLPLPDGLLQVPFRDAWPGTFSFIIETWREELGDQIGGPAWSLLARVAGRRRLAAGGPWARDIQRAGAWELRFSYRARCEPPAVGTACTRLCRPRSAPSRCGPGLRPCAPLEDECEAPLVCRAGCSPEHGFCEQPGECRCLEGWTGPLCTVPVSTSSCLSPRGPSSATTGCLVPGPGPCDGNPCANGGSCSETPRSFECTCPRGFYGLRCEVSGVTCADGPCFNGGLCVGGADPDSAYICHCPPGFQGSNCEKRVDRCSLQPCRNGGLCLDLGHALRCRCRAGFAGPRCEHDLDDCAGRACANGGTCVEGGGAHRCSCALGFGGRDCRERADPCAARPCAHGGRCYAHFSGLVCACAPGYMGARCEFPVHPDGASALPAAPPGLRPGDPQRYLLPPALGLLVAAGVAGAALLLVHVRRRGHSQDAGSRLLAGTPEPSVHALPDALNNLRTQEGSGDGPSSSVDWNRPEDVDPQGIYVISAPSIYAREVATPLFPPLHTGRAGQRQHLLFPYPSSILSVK
# Measurement Protocol: FACS on NCI-H82 cells; antibody 100 nM
Property: MFI
Just the number, please.

Check out these entries, answers already filled in.
* Hab015VL4VH1a-hFc (scFv, part only; not given: scFv linker and human IgG1 Fc, V domains shown, not shown: another chain or arm of the molecule; a dimerising Fc or GST; small tags and cut ends) VL: NIVLTQSPATLSLSPGERATLSCKASENVGTYVSWFQQKPGQSPRLLIYGASNRYTGIPARFSGSGSGTDFTLTISSLEPEDFAVYYCGQFYSFPSTFGGGTKVEIK VH: EVQLVESGGGLVKPGGSLRLSCAASGITFSNFWMNWVRQAPGKGLEWVGQIRLKSDDYATHYAESVKGRFTISREDSKNTVYLQMNSLKTEDTAVYYCTTGYYFDYWGQGTTVTVSS | 1520
* Hab015VL4VH6a-hFc (scFv, part only; not given: scFv linker and human IgG1 Fc, V domains shown, not shown: another chain or arm of the molecule; a dimerising Fc or GST; small tags and cut ends) VL: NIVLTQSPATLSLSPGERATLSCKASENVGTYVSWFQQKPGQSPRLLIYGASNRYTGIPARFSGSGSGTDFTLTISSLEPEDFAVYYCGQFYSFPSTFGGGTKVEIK VH: EVQLVESGGGLVKPGGSLRLSCAASGITFSNFWMNWVRQAPEKGLEWVGQIRLKSDDYATHYAESVKGRFTISREDSKNTVYLQMNSLKTEDTAVYYCTTGYYFDYWGQGTTVTVSS | 1550

Okay, next one:
Input BI3 (antibody, human IgG1, kappa, V domains shown) VH: QVQLVQSGAEVKKPGASVKVSCKASGYTFTSYYVHWVRQAPGQGLEWMVIINPGGGTTSYAQKFLGRVTMTRDTSTNTVYMELKSLRSEDTAVYYCARGEAVTGNYFYYGMDVWGQGTTVTVSS VL: DIQMTQSPSAMSASVGDRVTITCRASQGISNYLVWFQQKPGKAPKRLIYAVSSLYSGVPSRFSGSGSGTEFTLTISSLQPEDFATYYCLQHDSYPYTFGQGTKLEIKR , output reported MFI.
1010

FYI, the data here is from patent EP4786492A1.
